Hey, just so you know, these numbers are from PubChem BioAssay (NCI).

- System: UACC-62 melanoma
- Measurement notes: NCI-60 one-dose screen, 48 h
- Condition: 10 µM unless noted
This is part of a sample that, as a whole, favours compounds with a hit. Of some 83,000 tested, about 20% had one in any assay. The source made the active and inactive calls. The calls were made as follows: active = growth percent below 10; inactive = the rest.
Labels: Yes (active), No (inactive)

{"Smiles code": "COc1cc(OC)c(/C=C/S(=O)(=O)Cc2ccc(OC)c(NCC(=O)NO)c2)c(OC)c1", "Class": "No"}
{"Smiles code": "C=CCN(C)S(=O)(=O)/N=C1\\NC(=O)NC1=C(Cl)Cl", "Class": "No"}
{"Smiles code": "COc1ccc(Cn2cc3c(c2-c2cc(OC)c(OC)c(OC)c2)CCc2c(CN4CCOCC4)noc2-3)cc1", "Class": "No"}
{"Smiles code": "CC(=O)Nc1cccc(Nc2nc(N[C@H](C)c3ccccc3)c3ccccc3n2)c1", "Class": "No"}
{"Smiles code": "O=c1[nH]c(Sc2sc3ccc(Cl)cc3c2CBr)nc(=S)[nH]1", "Class": "Yes"}
